Entry source: patent US5336483A

# systemUnderTest: κ2 receptor
# testName: Displacement of [^3 H]BRM (bremazocine), κ2 receptor binding, guinea pig brain membranes depleted of μ and δ sites
I'd be grateful if you could share measured Ki for these entries.
Give a bare numeral; the unit nM is implied.

Data request: Given the entry `Oc1ccc2c3c1O[C@H]1[C@H](I)CC[C@@]4(O)[C@@H](C2)N(CC2CC2)CC[C@]314` , report its measured Ki.
Data returned: 2.73

Data request: Given the entry Oc1ccc2c3c1O[C@H]1[C@@H](I)CC[C@@]4(O)[C@@H](C2)N(CC2CC2)CC[C@]314 [EpilOXY] , report its measured Ki.
Data returned: 8.46

Data request: Given the entry Oc1ccc2c3c1O[C@H]1[C@H](Br)CC[C@@]4(O)[C@@H](C2)N(CC2CC2)CC[C@]314 [CycloBROXY, reference compound] , report its measured Ki.
Data returned: 7.21
